# IC50 annotations
- System: E. faecalis MSU#10
- experiment_description: Bacterial viability assay
- Type: cell-based, Enterococcus faecalis
- run_parameters: E. faecalis MSU#10; one hour in PBS, CFU; ± SEM; read-out: IC50
- Experimental: Supplementary file pone.0097742.s003.doc: Table S1 Bacterial viability assays. Bacteria were grown at 37°C to mid-log phase (OD600 ∼0.4). […] IC50s were calculated from graphs of CFU as a function of compound concentration. […] Bacterial viability assays. […] IC50s were calculated from graphs of CFU as a function of compound concentration. […]
Kindly answer with a numeric value in µM, unit omitted.

Example cases with answers are listed next.
- compound_string: "N=C(NCCCCCCCCNc1nc(NCCCCCCCCN)nc(NCCCCCCCCNC(=N)Nc2ccccc2)n1)Nc1ccccc1"
  quantity: "IC50"
  units_text: "µM"
  measured_value: 6.1
- compound_string: "N=C(NCCCCCCCCNc1nc(NCCCCCCCCNC(=N)Nc2ccccc2)nc(NCCCCCCCCNC(=N)Nc2ccccc2)n1)Nc1ccccc1"
  quantity: "IC50"
  units_text: "µM"
  measured_value: 1.2
- compound_string: "NCCCCCCCCNc1nc(NCCCCCCCCN)nc(NCCCCCCCCN)n1"
  quantity: "IC50"
  units_text: "µM"
  measured_value: 77

Task item: // query IC50 value for entry "N=C(N)NCCCCCCCCNc1nc(NCCCCCCCCNC(=N)N)nc(NCCCCCCCCNC(=N)N)n1"
Reply: 5

* * *

- System: MRSA USA300
- experiment_description: Bacterial viability assay
- Type: cell-based, Staphylococcus aureus
- run_parameters: one hour in PBS, CFU, ± SEM
quantity: IC50 (µM)
Kindly answer with a numeric value in µM, unit omitted.

- compound_string: "N=C(N)NCCCCCCCCNc1nc(NCCCCCCCCNC(=N)N)nc(NCCCCCCCCNC(=N)N)n1"
  assayed_target: "MRSA USA300"
  units_text: "µM"
  measured_value: 1.5
- compound_string: "N=C(NCCCCCCCCNc1nc(NCCCCCCCCNC(=N)Nc2ccccc2)nc(NCCCCCCCCNC(=N)Nc2ccccc2)n1)Nc1ccccc1"
  assayed_target: "MRSA USA300"
  units_text: "µM"
  measured_value: 0.24
- compound_string: "N=C(NCCCCCCCCNc1nc(NCCCCCCCCN)nc(NCCCCCCCCNC(=N)Nc2ccccc2)n1)Nc1ccccc1"
  assayed_target: "MRSA USA300"
  units_text: "µM"
  measured_value: 0.6

Task item: Tell me reported IC50 for "NCCCCCCCCNc1nc(NCCCCCCCCN)nc(NCCCCCCCCN)n1" , tested with MRSA USA300.
Reply: 30

* * *

- experiment_description: Cell toxicity assay (MTS)
- Assay type: cell-based, human
- run_parameters: human, HaCaT keratinocytes, MTS assay, concentration which killed 50% of the cells
- Protocol: The HaCaT cell line was grown in Epilife medium (MEPI500Ca) with human keratinocyte growth supplement (Invitrogen, San Diego, CA). Both types of cells were harvested using Tryspin/EDTA and diluted to 1×10^5 cells per well in a 96-well plate. Ten concentrations covering five orders of magnitude were tested with six replicates per concentration. […] MTS/PMS solution (Promega, Madison, WI) was added to the wells and absorbance was measured at 490 nm two to four hours later. […]
quantity: CC50

Example cases with answers are listed next.
- compound: "NCCCNCCCCNCCCN"
  CC50: "> 200 µg/mL"
- compound: "[H]/N=C(\\N/C(=N/[H])NCCCCCCNC(=N)NC(=N)Nc1ccc(Cl)cc1)Nc1ccc(Cl)cc1 [Chlorhexidine, chlorhexidine, reference compound]"
  CC50: "1.9 µg/mL"

Task item: // query CC50 value for entry "NCCCCNCCCN"
Reply: > 150 µg/mL

Task item: // query CC50 value for entry N=C(NCCCCCCNc1nc(NCCCCCCNC(=N)Nc2ccccc2)nc(NCCCCCCNC(=N)Nc2ccccc2)n1)Nc1ccccc1 [THAM-3ΦG, Trishexylaminomelamine trisphenylguanide]
Reply: 14 µg/mL
